Measured pIC50 accompanies every entry in the list below.
Molecular target: human α1G T-type channels (Homo sapiens, UniProt O43497)
Construct: expressed in transfected cells; host or cells: HEK 293
Sequence (O43497 whole entry): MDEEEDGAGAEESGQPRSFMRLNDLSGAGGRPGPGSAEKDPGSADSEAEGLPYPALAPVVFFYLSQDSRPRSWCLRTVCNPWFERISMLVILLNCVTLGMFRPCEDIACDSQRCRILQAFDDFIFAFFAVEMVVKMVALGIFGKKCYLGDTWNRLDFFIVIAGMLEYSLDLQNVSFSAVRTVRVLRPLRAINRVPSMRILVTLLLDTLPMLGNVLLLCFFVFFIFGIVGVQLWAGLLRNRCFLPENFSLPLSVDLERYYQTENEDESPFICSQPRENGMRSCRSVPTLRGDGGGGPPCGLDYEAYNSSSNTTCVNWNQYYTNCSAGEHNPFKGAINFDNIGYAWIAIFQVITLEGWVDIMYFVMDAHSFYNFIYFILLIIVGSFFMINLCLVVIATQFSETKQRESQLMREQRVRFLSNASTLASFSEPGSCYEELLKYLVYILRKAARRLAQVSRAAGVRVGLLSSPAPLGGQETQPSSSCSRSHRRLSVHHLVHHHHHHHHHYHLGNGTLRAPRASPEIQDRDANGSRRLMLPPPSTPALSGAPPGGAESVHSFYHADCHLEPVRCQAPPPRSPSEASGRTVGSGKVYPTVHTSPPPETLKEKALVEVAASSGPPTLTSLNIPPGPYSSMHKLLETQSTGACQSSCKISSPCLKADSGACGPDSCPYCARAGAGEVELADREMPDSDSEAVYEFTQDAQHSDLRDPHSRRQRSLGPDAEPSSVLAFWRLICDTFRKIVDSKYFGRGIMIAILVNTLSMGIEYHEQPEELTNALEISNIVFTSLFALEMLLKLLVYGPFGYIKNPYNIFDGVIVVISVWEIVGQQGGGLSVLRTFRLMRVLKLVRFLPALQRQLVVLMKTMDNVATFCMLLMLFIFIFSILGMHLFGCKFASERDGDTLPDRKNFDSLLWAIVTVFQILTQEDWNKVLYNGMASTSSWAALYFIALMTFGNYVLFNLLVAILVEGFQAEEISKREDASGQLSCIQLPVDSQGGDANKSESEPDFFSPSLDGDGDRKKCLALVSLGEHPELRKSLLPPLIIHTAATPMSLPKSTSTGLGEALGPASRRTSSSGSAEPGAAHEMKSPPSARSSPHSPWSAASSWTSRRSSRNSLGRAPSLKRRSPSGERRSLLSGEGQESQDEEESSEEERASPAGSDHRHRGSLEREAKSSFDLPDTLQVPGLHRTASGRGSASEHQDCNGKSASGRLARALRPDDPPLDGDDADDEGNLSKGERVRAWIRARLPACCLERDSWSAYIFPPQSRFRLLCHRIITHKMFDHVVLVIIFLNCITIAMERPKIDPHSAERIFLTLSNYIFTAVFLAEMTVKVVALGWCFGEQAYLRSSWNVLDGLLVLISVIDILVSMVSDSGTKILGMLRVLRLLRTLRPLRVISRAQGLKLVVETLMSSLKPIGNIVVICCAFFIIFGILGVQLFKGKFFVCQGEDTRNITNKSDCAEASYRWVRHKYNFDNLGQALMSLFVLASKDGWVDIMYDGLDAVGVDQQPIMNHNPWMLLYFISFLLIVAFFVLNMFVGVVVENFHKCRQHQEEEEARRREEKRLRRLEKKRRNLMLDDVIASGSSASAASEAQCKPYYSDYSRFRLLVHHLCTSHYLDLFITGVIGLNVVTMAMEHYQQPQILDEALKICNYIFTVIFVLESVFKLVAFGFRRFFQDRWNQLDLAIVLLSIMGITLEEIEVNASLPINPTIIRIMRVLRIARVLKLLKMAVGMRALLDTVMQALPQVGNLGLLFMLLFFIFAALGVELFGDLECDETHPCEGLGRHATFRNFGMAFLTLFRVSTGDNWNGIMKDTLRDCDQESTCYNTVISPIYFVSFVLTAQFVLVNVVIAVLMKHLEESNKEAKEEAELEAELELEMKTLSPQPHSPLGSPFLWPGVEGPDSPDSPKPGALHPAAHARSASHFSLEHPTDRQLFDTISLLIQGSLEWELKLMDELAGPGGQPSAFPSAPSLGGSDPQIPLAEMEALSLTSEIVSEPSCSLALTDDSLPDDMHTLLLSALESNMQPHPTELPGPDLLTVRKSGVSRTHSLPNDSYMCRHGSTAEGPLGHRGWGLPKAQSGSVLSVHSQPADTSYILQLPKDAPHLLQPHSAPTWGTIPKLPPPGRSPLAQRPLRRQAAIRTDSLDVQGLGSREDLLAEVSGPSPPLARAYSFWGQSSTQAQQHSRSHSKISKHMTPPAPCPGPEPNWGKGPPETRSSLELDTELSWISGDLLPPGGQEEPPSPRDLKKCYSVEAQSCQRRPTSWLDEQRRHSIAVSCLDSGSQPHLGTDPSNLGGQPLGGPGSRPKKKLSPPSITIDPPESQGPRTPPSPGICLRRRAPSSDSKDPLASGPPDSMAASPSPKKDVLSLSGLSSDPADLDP
Experiment: T-type calcium channel block, whole cell patch clamp in HEK cells (α1G)
Assay type: cell-based
Details: HEK cells, patch clamp, mainly non-inactivated protocol; values above 10 μM shown as 10 μM, below 0.30 μM shown as 0.30 μM; read-out: T-type Calcium Channel Block α1G IC50
pIC50: −log10 of the molar value.

Example cases with answers are listed next.
Prompt: What does the data say about its pIC50? Entry: COc1cc(F)cc(C(=O)NCC2CCN(CCNS(=O)(=O)C3CC3)CC2)c1 [Compound 321]
Completion: 5.88

Prompt: Entry Cc1cc(C)cc(C(=O)NCC2CCN(CC(=O)NC(C)(C)C(F)(F)F)CC2)c1 [Compound 454] has what pIC50?
Completion: > 6.52

Prompt: Given CN(C(=O)CN1CCC(CNC(=O)c2cccc(Cl)c2)CC1)C(C)(C)C(F)(F)F [Compound 580] , state its recorded pIC50.
Completion: > 6.52

Prompt: pIC50 lookup needed for CC(C(=O)NC1CCCC1)N1CCC(CNC(=O)c2cc(F)cc(Cl)c2)CC1 (stereo not shown) [Compound 549] , thanks.
Completion: > 6.52

Prompt: What measured pIC50 goes with CC(C)(C)NC(=O)CN1CCC(CNC(=O)c2cccc(Br)c2)CC1 [Compound 374] ?
Completion: > 6.52

---
Prompt: Would you kindly share the measured pIC50 for CCONC(=O)CN1CCC(CNC(=O)c2cc(C(F)(F)F)cc(C(F)(F)F)c2)CC1 [Compound 486] ?
Completion: < 5.00

Prompt: Item CCNC(=O)NC1(CN2CCC(CNC(=O)c3cc(C(F)(F)F)cc(C(F)(F)F)c3)CC2)CCCC1 [Compound 11] has what recorded pIC50?
Completion: 5.72

Prompt: Consider the compound Cc1cc(F)cc(C(=O)NCC2CCN(CC(=O)NC3(C)CCC3)CC2)c1 [Compound 476] and give its measured pIC50.
Completion: > 6.52

Prompt: Which measured pIC50 value corresponds to CC(C)(C)C1CCN(CC(=O)N2CCC(CNC(=O)c3cc(C(F)(F)F)cc(C(F)(F)F)c3)CC2)CC1 [Compound 258] ?
Completion: 5.93

###

Target: human α1H T-type channels (Homo sapiens, UniProt O95180)
Construct: expressed in transfected cells; host or cells: HEK 293
Sequence (O95180 whole entry): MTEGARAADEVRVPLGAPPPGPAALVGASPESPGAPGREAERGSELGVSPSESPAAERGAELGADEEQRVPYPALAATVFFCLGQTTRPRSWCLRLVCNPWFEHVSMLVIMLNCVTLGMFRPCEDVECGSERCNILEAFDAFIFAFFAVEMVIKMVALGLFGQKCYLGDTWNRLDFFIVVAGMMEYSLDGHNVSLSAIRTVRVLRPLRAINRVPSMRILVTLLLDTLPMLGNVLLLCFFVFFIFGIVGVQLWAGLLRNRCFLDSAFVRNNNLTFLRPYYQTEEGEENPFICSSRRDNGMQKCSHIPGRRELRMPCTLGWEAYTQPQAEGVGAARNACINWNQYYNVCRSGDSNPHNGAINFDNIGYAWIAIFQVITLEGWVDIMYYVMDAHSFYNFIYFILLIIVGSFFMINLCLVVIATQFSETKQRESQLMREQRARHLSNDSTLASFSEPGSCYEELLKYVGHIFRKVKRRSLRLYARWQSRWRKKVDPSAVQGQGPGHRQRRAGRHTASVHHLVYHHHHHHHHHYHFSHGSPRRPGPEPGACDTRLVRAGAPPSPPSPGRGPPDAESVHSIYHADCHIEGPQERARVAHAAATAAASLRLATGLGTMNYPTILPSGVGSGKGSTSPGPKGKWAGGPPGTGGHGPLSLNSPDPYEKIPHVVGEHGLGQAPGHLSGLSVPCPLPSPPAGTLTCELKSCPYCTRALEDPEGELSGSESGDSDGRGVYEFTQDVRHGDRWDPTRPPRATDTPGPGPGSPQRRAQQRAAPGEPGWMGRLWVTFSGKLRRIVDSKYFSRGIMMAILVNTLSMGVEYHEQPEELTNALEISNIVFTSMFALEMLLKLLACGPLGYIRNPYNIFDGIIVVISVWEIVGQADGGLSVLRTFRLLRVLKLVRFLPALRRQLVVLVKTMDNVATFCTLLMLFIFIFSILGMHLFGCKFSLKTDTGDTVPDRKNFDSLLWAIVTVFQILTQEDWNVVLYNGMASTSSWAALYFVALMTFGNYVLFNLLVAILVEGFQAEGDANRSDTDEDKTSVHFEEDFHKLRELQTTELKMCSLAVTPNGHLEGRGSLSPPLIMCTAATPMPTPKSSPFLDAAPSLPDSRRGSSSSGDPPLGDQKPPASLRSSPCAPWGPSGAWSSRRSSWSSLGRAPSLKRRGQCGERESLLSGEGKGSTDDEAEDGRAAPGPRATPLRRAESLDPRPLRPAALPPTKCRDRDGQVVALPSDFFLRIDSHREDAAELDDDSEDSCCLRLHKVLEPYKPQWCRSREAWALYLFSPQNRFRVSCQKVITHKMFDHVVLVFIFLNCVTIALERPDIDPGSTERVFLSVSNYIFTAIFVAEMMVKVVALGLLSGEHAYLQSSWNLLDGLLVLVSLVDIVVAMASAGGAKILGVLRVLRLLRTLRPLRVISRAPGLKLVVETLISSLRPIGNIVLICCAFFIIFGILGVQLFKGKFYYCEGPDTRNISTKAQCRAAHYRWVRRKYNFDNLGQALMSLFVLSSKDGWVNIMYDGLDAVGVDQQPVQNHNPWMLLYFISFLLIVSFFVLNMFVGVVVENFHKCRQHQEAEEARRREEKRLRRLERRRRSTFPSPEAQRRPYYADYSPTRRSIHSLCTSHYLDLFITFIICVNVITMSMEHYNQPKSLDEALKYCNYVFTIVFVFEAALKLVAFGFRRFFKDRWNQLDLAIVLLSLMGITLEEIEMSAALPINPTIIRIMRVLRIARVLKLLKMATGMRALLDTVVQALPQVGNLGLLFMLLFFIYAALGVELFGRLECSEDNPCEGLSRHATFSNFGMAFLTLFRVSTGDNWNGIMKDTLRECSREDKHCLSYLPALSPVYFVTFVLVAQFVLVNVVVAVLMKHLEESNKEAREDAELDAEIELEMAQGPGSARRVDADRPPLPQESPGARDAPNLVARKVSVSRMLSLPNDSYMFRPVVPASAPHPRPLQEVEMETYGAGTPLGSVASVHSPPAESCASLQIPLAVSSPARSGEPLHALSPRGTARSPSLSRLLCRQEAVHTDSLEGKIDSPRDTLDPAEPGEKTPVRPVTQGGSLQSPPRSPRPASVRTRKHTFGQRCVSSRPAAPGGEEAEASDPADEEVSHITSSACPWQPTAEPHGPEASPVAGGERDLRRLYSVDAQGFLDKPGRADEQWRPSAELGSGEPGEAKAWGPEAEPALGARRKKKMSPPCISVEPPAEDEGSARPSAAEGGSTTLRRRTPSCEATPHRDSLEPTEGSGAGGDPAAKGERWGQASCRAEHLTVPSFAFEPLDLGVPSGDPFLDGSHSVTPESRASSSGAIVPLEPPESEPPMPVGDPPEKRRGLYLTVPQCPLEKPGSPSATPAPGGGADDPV
Test: T-type calcium channel block, whole cell patch clamp in HEK cells (α1H)
Assay type: cell-based
Settings: HEK cells, patch clamp, mainly non-inactivated protocol; values above 10 μM shown as 10 μM; read-out: T-type Calcium Channel Block α1H IC50
Attribute Measured: IC50 (nM)
Reply numerically in nM, unit not repeated.

// known answers, use as guide
Prompt: Reported IC50 for `Cc1cc(C)cc(C(=O)NCC2CCN(CCNC(=O)C(C)(C)C)CC2)c1` : what is it?
Completion: 1260

Prompt: # IC50 lookup, item `Cc1cc(C)cc(C(=O)NCC2CCN(CCNS(=O)(=O)C3CC3)CC2)c1`
Completion: 1380

Prompt: Request the reported IC50 associated with `O=C(NCC1CCN(CC(=O)N2CCC(CO)CC2)CC1)c1cc(C(F)(F)F)cc(C(F)(F)F)c1`
Completion: 5560

Prompt: Need IC50 of `CC(C)(F)CNC(=O)CN1CCC(CNC(=O)c2cc(C(F)(F)F)cc(C(F)(F)F)c2)CC1` , thanks.
Completion: 890

Prompt: Tell me the measured IC50 of `CC(C)(C)OC(=O)NCCN1CCC(CNC(=O)c2cc(Br)cc(C(F)(F)F)c2)CC1` , please.
Completion: 150

Others:
Prompt: Quick check: IC50 of CCC1CCCCN1CC(=O)N1CCC(CNC(=O)c2cc(F)cc(C(F)(F)F)c2)CC1 (centres unmarked) ?
Completion: 3140

Prompt: Dear colleague, I am looking for the recorded IC50 of the following compound: `CCNC(=O)NC1(CN2CCC(CNC(=O)c3cc(C(F)(F)F)cc(C(F)(F)F)c3)CC2)CCCC1`
Completion: 3800

Prompt: Give its IC50 value. Item: `COc1cc(OC)cc(C(=O)NCC2CCN(CC(=O)NC(C)(C)C)CC2)c1`
Completion: 170

Prompt: Requested field: IC50. Item: `O=C(CN1CCC(CNC(=O)c2cccc(Cl)c2)CC1)NC1CCCC1`
Completion: 420

Source: patent US8569344B2
